experimental target: human mGluR2 receptor (Homo sapiens)
Construct: expressed in transfected cells
Sequence (Q14416 19-872): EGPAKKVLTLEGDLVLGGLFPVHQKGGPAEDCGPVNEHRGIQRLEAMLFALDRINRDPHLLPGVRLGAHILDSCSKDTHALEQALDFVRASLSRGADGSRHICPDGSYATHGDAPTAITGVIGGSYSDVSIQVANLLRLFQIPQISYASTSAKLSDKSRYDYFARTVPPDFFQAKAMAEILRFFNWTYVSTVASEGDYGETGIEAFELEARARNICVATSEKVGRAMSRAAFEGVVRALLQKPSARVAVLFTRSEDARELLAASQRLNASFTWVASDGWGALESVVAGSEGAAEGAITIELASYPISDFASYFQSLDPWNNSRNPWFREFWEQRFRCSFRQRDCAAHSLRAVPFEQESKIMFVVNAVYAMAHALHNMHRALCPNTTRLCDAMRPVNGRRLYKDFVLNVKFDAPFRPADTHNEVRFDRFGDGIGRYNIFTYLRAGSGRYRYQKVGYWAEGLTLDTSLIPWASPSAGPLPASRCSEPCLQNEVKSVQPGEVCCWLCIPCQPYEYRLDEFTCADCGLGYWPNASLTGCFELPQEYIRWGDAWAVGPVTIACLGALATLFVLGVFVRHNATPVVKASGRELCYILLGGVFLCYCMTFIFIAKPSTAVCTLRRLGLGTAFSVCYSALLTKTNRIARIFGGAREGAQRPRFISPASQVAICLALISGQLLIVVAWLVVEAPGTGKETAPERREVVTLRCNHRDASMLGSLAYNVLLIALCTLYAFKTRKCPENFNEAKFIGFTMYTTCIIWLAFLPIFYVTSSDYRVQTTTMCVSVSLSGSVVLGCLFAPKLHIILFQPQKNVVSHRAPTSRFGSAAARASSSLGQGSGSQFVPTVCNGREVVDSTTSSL
assay text: [35S]-GTPγS binding assay of mGluR2 receptor activation
Assay type: biochemical
condition summary: membranes from CHO cells stably expressing human mGluR2; 1 μM glutamate
Measured log10 of EC50 by item
Friendly reminder: values = log10 of EC50, unit nM.

Cc1cc(CNC2Cc3ccccc3C2)cc2c1C(=O)N(Cc1ccc(OC(F)(F)F)cc1)C2; 2.61

Fill in the blank: the reported log10 of EC50 of Cc1cc(N2CCN3CCCC3C2)cc2c1C(=O)N(Cc1ccc(OC(F)(F)F)cc1)C2 (stereo not shown) is ____. 2.78

Fill in the blank: the reported log10 of EC50 of `CCNCc1cc(C)c2c(c1)CN(Cc1ccc(OC(F)(F)F)cc1)C2=O` is ____. 3.80

Fill in the blank: the reported log10 of EC50 of `O=C(CN1CCN(c2cc(Cl)c3c(c2)CN(Cc2ccc(OC(F)(F)F)cc2)C3=O)CC1)N1CCCC1` is ____. 2.51

Fill in the blank: the reported log10 of EC50 of Cc1cc(N2CCC(N(C)C)C2)cc2c1C(=O)N(Cc1ccc(Oc3ccccc3)cc1)C2 (stereo not shown) is ____. 2.00

Fill in the blank: the reported log10 of EC50 of `Cc1cc(N2CCNCC2)cc2c1C(=O)N(Cc1ccc(OC(F)(F)F)cc1)C2` is ____. 3.59

Fill in the blank: the reported log10 of EC50 of `Cc1cc(-c2ccc(CN(C)C)cc2)cc2c1C(=O)N(Cc1ccc(OC(F)(F)F)cc1)C2` is ____. 1.78
